# experiment_notes: Antiproliferative activity against human hepatocytes incubated for 48 hrs by SRB assay
# Assay type: cell-based, Hepatocyte
measurement_type: GI50 at 48 h (µM)
One number for each entry, in µM.

### Prompt Give the reported value of GI50 at 48 h for this record: O=C(Nc1ccncc1)c1ccc(CNC2=C(Cl)C(=O)c3ccccc3C2=O)cc1
### Response 30

* * *

Consider the following molecules; for each one, report its GI50.
# Test system: HCT-116
# experiment_notes: Antiproliferative activity against human HCT116 cells incubated for 48 hrs by SRB assay
# Type: functional
# conditions_used: HCT-116, 48 h

O=C(Nc1nccs1)c1ccc(CNC2=C(Cl)C(=O)c3ccccc3C2=O)cc1 > 10 µM
O=C(Nc1ccc2[nH]cnc2c1)c1ccc(CNC2=C(Cl)C(=O)c3ccccc3C2=O)cc1 > 10 µM
Nc1ccn(C(=O)c2ccc(CNC3=C(Cl)C(=O)c4ccccc4C3=O)cc2)n1 > 10 µM

Quick request: GI50 for each listed item, please.
1. O=C(Nc1ccc2cn[nH]c2c1)c1ccc(CNC2=C(Cl)C(=O)c3ccccc3C2=O)cc1
2. O=C(Nc1ccc2ncccc2c1)c1ccc(CNC2=C(Cl)C(=O)c3ccccc3C2=O)cc1
3. O=C(Nc1cccnc1)c1ccc(CNC2=C(Cl)C(=O)c3ccccc3C2=O)cc1
4. O=C(Nc1ccccc1)c1ccc(CNC2=C(Cl)C(=O)c3ccccc3C2=O)cc1
5. O=C(Nc1cccc2ncccc12)c1ccc(CNC2=C(Cl)C(=O)c3ccccc3C2=O)cc1
6. O=C(Nc1ccc2[nH]ccc2c1)c1ccc(CNC2=C(Cl)C(=O)c3ccccc3C2=O)cc1

### Response
1. > 10 µM
2. 6.8 µM
3. > 10 µM
4. > 10 µM
5. > 10 µM
6. > 10 µM

src = ChEMBL document CHEMBL4130444
